Hey, just so you know, these numbers are from ChEMBL document CHEMBL4196055.

// Activity lookup, one value per entry
test system: HepG2; assay: Antiproliferative activity against human HepG2 cells at 10 uM after 24 hrs by CCK-8 assay relative to control; assay type: functional
// return numeric value only (unit: %, not printed)

[
  {
    "compound": "C=C1C(=O)O[C@@H]2C3=C(C)[C@@H](OC(=O)c4ccc(CCC)cc4)CC3[C@](C)(OC(C)=O)CC[C@@H]12 (some centres undefined)",
    "Activity (%)": 62.47
  },
  {
    "compound": "C=C1C(=O)O[C@@H]2C3=C(C)[C@@H](OC(=O)c4ccc(CC)cc4)CC3[C@](C)(OC(C)=O)CC[C@@H]12 (some centres undefined)",
    "Activity (%)": 42.33
  },
  {
    "compound": "C=C1C(=O)O[C@@H]2C3=C(C)[C@@H](OC(=O)/C=C/c4ccc(Cl)cc4)CC3[C@](C)(OC(C)=O)CC[C@@H]12 (some centres undefined)",
    "Activity (%)": 62.92
  }
]

Below: the item to evaluate.
Asked: Please give the measured Activity for this compound: C=C1C(=O)O[C@@H]2C3=C(C)[C@@H](OC(=O)c4ccc(C(C)C)cc4)CC3[C@](C)(OC(C)=O)CC[C@@H]12 (some centres undefined)
Given back: 37.86
